- PROCEDURE SUMMARY: in vivo
- ASSAY CONDITIONS: BALB/c nude, mouse, in vivo, iv, total radioactivity, T/L Tumor/Liver ratio
READOUT LABEL: tissue to tissue ratio at 24 h
Format: numeric value only, no unit, no commentary.

MOLECULE	tissue to tissue ratio at 24 h
C[C@@H](O)[C@H](NC(=O)[C@@H]1CSSC[C@H](NC(=O)[C@@H](Cc2ccccc2)NC(=O)[C@H](CCCCNC(=O)COCCOCCNC(=O)COCCOCCNC(=O)c2cccc(NC(=O)N[C@@H]3CN(C4CCCCC4)c4ccccc4N(CC(=O)C(C)(C)C)C3=O)c2)NC(=O)CN2CCN(CC(=O)O)CCN(CC(=O)O)CCN(CC(=O)O)CC2)C(=O)N[C@@H](Cc2ccc(O)cc2)C(=O)N[C@H](Cc2c[nH]c3ccccc23)C(=O)N[C@@H](CCCCN)C(=O)N[C@@H]([C@@H](C)O)C(=O)N1)C(=O)O [Compound I-42, DOTA-K(-OEG-OEG-Z360)-f]CYwKTC]T-OH]	3.3

Please examine the following record next.
Lookup result for C[C@@H](O)[C@H](NC(=O)[C@@H]1CSSC[C@H](NC(=O)[C@@H](Cc2ccccc2)NC(=O)CCCCCCCNC(=O)[C@H](CCCCNC(=O)c2cccc(NC(=O)N[C@@H]3CN(C4CCCCC4)c4ccccc4N(CC(=O)C(C)(C)C)C3=O)c2)NC(=O)CN2CCN(CC(=O)O)CCN(CC(=O)O)CCN(CC(=O)O)CC2)C(=O)N[C@@H](Cc2ccc(O)cc2)C(=O)N[C@H](Cc2c[nH]c3ccccc23)C(=O)N[C@@H](CCCCN)C(=O)N[C@@H]([C@@H](C)O)C(=O)N1)C(=O)O [Compound I-61, DOTA-K(Z360)-Aoc-f[CYwKTC]T-OH] ; measured tissue to tissue ratio at 24 h: 0.1

----------
- PROCEDURE SUMMARY: in vivo
- ASSAY CONDITIONS: BALB/c nude, mouse, in vivo, iv, total radioactivity, T/St Tumor/Stomach ratio
READOUT LABEL: tissue to tissue ratio at 24 h
Format: numeric value only, no unit, no commentary.

MOLECULE	tissue to tissue ratio at 24 h
C[C@@H](O)[C@H](NC(=O)[C@@H]1CSSC[C@H](NC(=O)[C@@H](Cc2ccccc2)NC(=O)CCOCCOCCOCCOCCOCCOCCNC(=O)[C@H](CCCCNC(=O)c2cccc(NC(=O)N[C@@H]3CN(C4CCCCC4)c4ccccc4N(CC(=O)C(C)(C)C)C3=O)c2)NC(=O)CN2CCN(CC(=O)O)CCN(CC(=O)O)CCN(CC(=O)O)CC2)C(=O)N[C@@H](Cc2ccc(O)cc2)C(=O)N[C@H](Cc2c[nH]c3ccccc23)C(=O)N[C@@H](CCCCN)C(=O)N[C@@H]([C@@H](C)O)C(=O)N1)C(=O)O [Compound I-40, DOTA-K(Z360)-PEG6-f[CYwKTC]T-OH]	10

Lookup result for C[C@@H](O)[C@H](NC(=O)[C@@H]1CSSC[C@H](NC(=O)[C@@H](Cc2ccccc2)NC(=O)CCOCCOCCOCCNC(=O)[C@H](CCCCNC(=O)c2cccc(NC(=O)N[C@@H]3CN(C4CCCCC4)c4ccccc4N(CC(=O)C(C)(C)C)C3=O)c2)NC(=O)CN2CCN(CC(=O)O)CCN(CC(=O)O)CCN(CC(=O)O)CC2)C(=O)N[C@@H](Cc2ccc(O)cc2)C(=O)N[C@H](Cc2c[nH]c3ccccc23)C(=O)N[C@@H](CCCCN)C(=O)N[C@@H]([C@@H](C)O)C(=O)N1)C(=O)O [Compound I-38, DOTA-K(Z360)-PEG3-f[CYwKTC]T-OH] ; measured tissue to tissue ratio at 24 h: 4.2

----------
- PROCEDURE SUMMARY: in vivo
- ASSAY CONDITIONS: BALB/c nude, mouse, in vivo, iv, total radioactivity, uptake Stomach
Measured tissue uptake at 24 h values are reported for all entries that follow.
Give just the number in %ID/g; leave the unit off.

Please review the entries below; each comes with its answer.
COMPOUND	READOUT LABEL	UNIT TAG	MEASUREMENT
C[C@@H](O)[C@H](NC(=O)[C@@H]1CSSC[C@H](NC(=O)[C@@H](Cc2ccccc2)NC(=O)[C@H](CCCCNC(=O)CC[C@H](NC(=O)CNC(=O)c2cccc(NC(=O)N[C@@H]3CN(C4CCCCC4)c4ccccc4N(CC(=O)C(C)(C)C)C3=O)c2)C(=O)O)NC(=O)COCCOCCNC(=O)CCC(C(=O)O)N2CCN(CC(=O)O)CCN(CC(=O)O)CCN(CC(=O)O)CC2)C(=O)N[C@@H](Cc2ccc(O)cc2)C(=O)N[C@H](Cc2c[nH]c3ccccc23)C(=O)N[C@@H](CCCCN)C(=O)N[C@@H]([C@@H](C)O)C(=O)N1)C(=O)O (stereo partly shown) [Compound I-19]	tissue uptake at 24 h	%ID/g	7.24
C[C@@H](O)[C@H](NC(=O)[C@@H]1CSSC[C@H](NC(=O)[C@@H](Cc2ccccc2)NC(=O)COCCOCCNC(=O)COCCOCCNC(=O)[C@H](CCCCNC(=O)c2cccc(NC(=O)N[C@@H]3CN(C4CCCCC4)c4ccccc4N(CC(=O)C(C)(C)C)C3=O)c2)NC(=O)CN2CCN(CC(=O)O)CCN(CC(=O)O)CCN(CC(=O)O)CC2)C(=O)N[C@@H](Cc2ccc(O)cc2)C(=O)N[C@H](Cc2c[nH]c3ccccc23)C(=O)N[C@@H](CCCCN)C(=O)N[C@@H]([C@@H](C)O)C(=O)N1)C(=O)O [Compound I-39, DOTA-K(Z360)-OEG-OEG-f[CYwKTC]T-OH]	tissue uptake at 24 h	%ID/g	4.63
C[C@@H](O)[C@H](NC(=O)[C@@H]1CSSC[C@H](NC(=O)[C@@H](Cc2ccccc2)NC(=O)[C@H](CCCCNC(=O)c2cccc(NC(=O)N[C@@H]3CN(C4CCCCC4)c4ccccc4N(CC(=O)C(C)(C)C)C3=O)c2)NC(=O)COCCOCCNC(=O)CN2CCN(CC(=O)O)CCN(CC(=O)O)CCN(CC(=O)O)CC2)C(=O)N[C@@H](Cc2ccc(O)cc2)C(=O)N[C@H](Cc2c[nH]c3ccccc23)C(=O)N[C@@H](CCCCN)C(=O)N[C@@H]([C@@H](C)O)C(=O)N1)C(=O)O [Compound I-35, DOTA-OEG-K(Z360)-f[CYwKTC]T-OH]	tissue uptake at 24 h	%ID/g	3.09

Lookup result for C[C@@H](O)[C@H](NC(=O)[C@@H]1CSSC[C@H](NC(=O)[C@@H](Cc2ccccc2)NC(=O)COCCOCCNC(=O)[C@H](CCCCNC(=O)[C@H](CCC(=O)O)NC(=O)c2cccc(NC(=O)N[C@@H]3CN(C4CCCCC4)c4ccccc4N(CC(=O)C(C)(C)C)C3=O)c2)NC(=O)CN2CCN(CC(=O)O)CCN(CC(=O)O)CCN(CC(=O)O)CC2)C(=O)N[C@@H](Cc2ccc(O)cc2)C(=O)N[C@H](Cc2c[nH]c3ccccc23)C(=O)N[C@@H](CCCCN)C(=O)N[C@@H]([C@@H](C)O)C(=O)N1)C(N)=O [Compound I-3, DOTA-K(-E-Z360)-OEG-f[CYwKTC]T-NH2] ; measured tissue uptake at 24 h: 3.24

----------
- PROCEDURE SUMMARY: in vivo
- ASSAY CONDITIONS: BALB/c nude, mouse, in vivo, iv, total radioactivity, % ID/g Fat
READOUT LABEL: tissue uptake at 4 h (%ID/g)
Give just the number in %ID/g; leave the unit off.

Lookup result for C[C@@H](O)[C@H](NC(=O)[C@@H]1CSSC[C@H](NC(=O)[C@@H](Cc2ccccc2)NC(=O)COCCOCCNC(=O)COCCOCCNC(=O)[C@H](CCCCNC(=O)c2cccc(NC(=O)N[C@@H]3CN(C4CCCCC4)c4ccccc4N(CC(=O)C(C)(C)C)C3=O)c2)NC(=O)CN2CCN(CC(=O)O)CCN(CC(=O)O)CCN(CC(=O)O)CC2)C(=O)N[C@@H](Cc2ccc(O)cc2)C(=O)N[C@H](Cc2c[nH]c3ccccc23)C(=O)N[C@@H](CCCCN)C(=O)N[C@@H]([C@@H](C)O)C(=O)N1)C(=O)O [Compound 177Lu-I-39, metal not drawn] ; measured tissue uptake at 4 h: 3.38

----------
- PROCEDURE SUMMARY: in vivo
- ASSAY CONDITIONS: BALB/c nude, mouse, in vivo, iv, total radioactivity, uptake Liver
READOUT LABEL: tissue uptake at 24 h (%ID/g)
Give just the number in %ID/g; leave the unit off.

Lookup result for C[C@@H](O)[C@H](NC(=O)[C@@H]1CSSC[C@H](NC(=O)[C@@H](Cc2ccccc2)NC(=O)[C@H](CCCCNC(=O)COCCOCCNC(=O)COCCOCCNC(=O)c2cccc(NC(=O)N[C@@H]3CN(C4CCCCC4)c4ccccc4N(CC(=O)C(C)(C)C)C3=O)c2)NC(=O)CN2CCN(CC(=O)O)CCN(CC(=O)O)CCN(CC(=O)O)CC2)C(=O)N[C@@H](Cc2ccc(O)cc2)C(=O)N[C@H](Cc2c[nH]c3ccccc23)C(=O)N[C@@H](CCCCN)C(=O)N[C@@H]([C@@H](C)O)C(=O)N1)C(=O)O [Compound I-42, DOTA-K(-OEG-OEG-Z360)-f]CYwKTC]T-OH] ; measured tissue uptake at 24 h: 5.6

Lookup result for C[C@@H](O)[C@H](NC(=O)[C@@H]1CSSC[C@H](NC(=O)[C@@H](Cc2ccccc2)NC(=O)CCOCCOCCOCCOCCOCCOCCNC(=O)[C@H](CCCCNC(=O)c2cccc(NC(=O)N[C@@H]3CN(C4CCCCC4)c4ccccc4N(CC(=O)C(C)(C)C)C3=O)c2)NC(=O)CN2CCN(CC(=O)O)CCN(CC(=O)O)CCN(CC(=O)O)CC2)C(=O)N[C@@H](Cc2ccc(O)cc2)C(=O)N[C@H](Cc2c[nH]c3ccccc23)C(=O)N[C@@H](CCCCN)C(=O)N[C@@H]([C@@H](C)O)C(=O)N1)C(=O)O [Compound I-40, DOTA-K(Z360)-PEG6-f[CYwKTC]T-OH] ; measured tissue uptake at 24 h: 3.1
